All values here come from paper PMC5943947.

Record type: log10(IC50) measurement. Applies to: EGFR (Homo sapiens, UniProt P00533)
Short version: log10 scale, IC50, nM.

Past entries and their recorded results:
Req: Lookup: log10(IC50) / EGFR (Homo sapiens, UniProt P00533) / COc1cc2ncnc(Oc3cccc(NC(=S)Nc4ccc(F)c(C(F)(F)F)c4)c3)c2cc1OC [Compound 10a]
Resp: 1.60

Req: Next compound: COc1cc2ncnc(Sc3cccc(NC(=S)Nc4cccc(C(F)(F)F)c4)c3)c2cc1OC [Compound 10p]
Resp: 1.85

Req: Next compound: COc1cc2ncnc(Sc3cccc(NC(=S)Nc4ccc(Cl)c(C(F)(F)F)c4)c3)c2cc1OC [Compound 10m]
Resp: 1.00

Req: Next compound: COc1cc2ncnc(Sc3cccc(NC(=S)Nc4cc(C(F)(F)F)cc(C(F)(F)F)c4)c3)c2cc1OC [Compound 10o]
Resp: 1.30

Would you kindly look at the next entry?
Req: Lookup: log10(IC50) / EGFR (Homo sapiens, UniProt P00533) / COc1cc2ncnc(Sc3cccc(NC(=S)Nc4ccc(F)cc4)c3)c2cc1OC [Compound 10u]
Resp: 3.73
